Target Desc: IKKβ (Homo sapiens, UniProt O14920)
Construct: gene IKBKB; IKKβ-FLAG immunoprecipitated from HEK293 cells
Sequence (O14920 whole entry): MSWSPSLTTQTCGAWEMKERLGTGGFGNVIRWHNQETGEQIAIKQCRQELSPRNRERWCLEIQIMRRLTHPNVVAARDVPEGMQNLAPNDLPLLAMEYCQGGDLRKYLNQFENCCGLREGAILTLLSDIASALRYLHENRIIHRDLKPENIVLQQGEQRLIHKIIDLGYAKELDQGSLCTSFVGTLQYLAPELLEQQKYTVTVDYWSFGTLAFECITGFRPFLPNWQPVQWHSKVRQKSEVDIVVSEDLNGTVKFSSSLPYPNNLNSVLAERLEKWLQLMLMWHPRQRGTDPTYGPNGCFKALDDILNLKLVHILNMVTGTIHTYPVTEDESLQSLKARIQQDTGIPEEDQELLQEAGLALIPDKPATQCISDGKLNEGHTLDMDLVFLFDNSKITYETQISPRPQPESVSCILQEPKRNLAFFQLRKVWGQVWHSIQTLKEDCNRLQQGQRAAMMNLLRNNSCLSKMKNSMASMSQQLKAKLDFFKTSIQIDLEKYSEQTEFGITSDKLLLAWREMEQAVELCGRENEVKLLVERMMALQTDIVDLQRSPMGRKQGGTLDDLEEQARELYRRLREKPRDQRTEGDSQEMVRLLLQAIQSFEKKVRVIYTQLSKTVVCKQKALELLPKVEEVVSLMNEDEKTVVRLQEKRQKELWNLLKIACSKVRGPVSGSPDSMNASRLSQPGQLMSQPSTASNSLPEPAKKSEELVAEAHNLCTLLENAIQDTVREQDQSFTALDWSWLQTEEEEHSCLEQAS
Assay Summary: in vitro kinase assay with immunoprecipitated IKKβ; adducts confirmed by LC-MS/MS
Assay type: biochemical
Endpoint: IC50 (µM)
The figure you give is taken to be in µM; do not add the unit.

Reported IC50 ( C=C1C(=O)O[C@H]2C[C@H](C)C(/C=C/C(C)=O)=CC[C@H]12 [Xa, xanthatin] ) = 11.3

The measured values listed here are drawn from paper PMC6533482.
